Kindly supply the reported CC50 values for the records listed here.
- method: Cytotoxicity in human HepAD38 cells assessed as induction of cell killing
- Assay type: cell-based

Sample O=S(=O)(c1ccc2c(c1)c(Nc1ccc(F)cc1)nn2C1CC1)N1CCC(O)CC1 ; CC50 observed: > 100 µM

Lookup result for O=S(=O)(c1ccc2c(c1)c(Nc1ccc(F)c(Cl)c1)nn2C1CC1)N1CCC(O)CC1 ; measured CC50: 18.3 µM

Recorded result, Cc1cc(Nc2nn(C3CC3)c3cc(F)c(S(=O)(=O)N4CCOCC4)cc23)ccc1F , CC50: > 100 µM

Just so you know, measured CC50 for O=S(=O)(c1ccc2c(c(Nc3cc(F)c(F)c(F)c3)nn2C2CC2)c1F)N1CCC(O)CC1 came out at > 100 µM

Sure, the documented CC50 for Cc1cc(Nc2nn(C3CC3)c3cnc(S(=O)(=O)N4CCC(O)CC4)cc23)ccc1F is > 100 µM

Lab note: measured CC50 of O=S(=O)(c1cc2c(Nc3ccc(F)c(C(F)(F)F)c3)nn(C3CC3)c2cn1)N1CCOCC1 was > 100 µM

----------
- method: Cytotoxicity in human HepG2 cells assessed as induction of cell killing
- Assay type: cell-based
readoutType: CC50

# CC50 of Cc1cc(Nc2nn(C3CC3)c3cnc(S(=O)(=O)N4CCC(O)CC4)cc23)ccc1F = > 100 µM

According to the records, this molecule Nc1ccn([C@@H]2CS[C@H](CO)O2)c(=O)n1 displays CC50 of > 100 µM

CC50 measured on O=S(=O)(c1cc2c(Nc3ccc(F)c(C(F)F)c3)nn(C3CC3)c2cn1)N1CCC(O)CC1 = > 100 µM

----------
Could you please report measured CC50 for the items listed next?
- method: Cytotoxicity in human HepAD38 cells assessed as induction of cell killing
- Format: cell-based
Reply with just the number (in µM).

The compound listed as Cc1cc(Nc2nn(C3CC3)c3ccc(S(=O)(=O)N4C[C@@H]5C[C@H]4CO5)cc23)ccc1F shows CC50 equal to 19

Recorded CC50 (compound O=S(=O)(c1ccc2c(c1)c(NC1CCCCC1)nn2C1CC1)N1CCC(O)CC1 ): 100

Sure, the documented CC50 for O=S(=O)(c1ccc2c(c1)c(Nc1ccc(F)cc1)nn2C1CC1)N1CCC(O)C1 (stereo unspecified) is 60

----------
- method: Cytotoxicity in human HepAD38 cells assessed as induction of cell killing
- Format: cell-based
readoutType: CC50

Lookup result for Cc1cc(Nc2nn(C(F)F)c3ccc(S(=O)(=O)N4CCOCC4)cc23)ccc1F ; measured CC50: > 100 µM

Lookup result for O=S(=O)(c1ccc2c(c1)c(Nc1ccc(F)c(F)c1)nn2C1CC1)N1CCOCC1 ; measured CC50: > 100 µM

Entry under test: O=C(O)C1CCN(S(=O)(=O)c2ccc3c(c2)c(Nc2ccc(F)cc2)nn3C2CC2)C1 (stereo not drawn) . Its CC50 was > 100 µM
